molecular target: HER2 on HER2-overexpressing breast cancer cells (SK-Br-3: human cell line) (human, UniProt P04626 23-1255); assay: cell-based or functional assay
Where no end group is shown, it is not given here.
measurement-type: IC50 (cytotoxicity, MTT assay), SKBR3 cells, 6 hours
Please report the result as a number followed by the unit.

Here is how some binders turned out for IC50 (cytotoxicity, MTT assay), SKBR3 cells, 6 hours.
[
  {
    "binder": "C(Maleimide‑PEG2000‑DSPE)GGGLTVSPWY (not fully specified; also: order of spacer and peptide assumed) [LTVSPWY (SEQ ID NO: 1) peptide-liposome, post inserted liposome 50 Ligand]",
    "endpoint-result": "10.4 µM"
  },
  {
    "binder": "C(Maleimide‑PEG2000‑DSPE)GGGLTVSPWY (not fully specified; also: order of spacer and peptide assumed) [LTVSPWY (SEQ ID NO: 1) peptide-liposome, post inserted liposome 100 Ligand]",
    "endpoint-result": "6.07 µM"
  },
  {
    "binder": "C(Maleimide‑PEG2000‑DSPE)GGGLTVSPWY (not fully specified; also: order of spacer and peptide assumed) [LTVSPWY (SEQ ID NO: 1) peptide-liposome, post inserted liposome 25 Ligand]",
    "endpoint-result": "12.8 µM"
  }
]

Now look at this one.
# get_value(readout='IC50 (cytotoxicity, MTT assay), SKBR3 cells, 6 hours', item= C(Maleimide‑PEG2000‑DSPE)GGGLTVSPWY (not fully specified; also: order of spacer and peptide assumed) [LTVSPWY (SEQ ID NO: 1) peptide-liposome, post inserted liposome 200 Ligand] )
4.9 µM
